Here, each record is paired with measured Lightness L* data.
assay.remarks: Evaluation of hue on glossy paper (L*, a*, b*, C* of inkjet recorded image)
Format: physicochemical
Set-up: key: CIELAB L* lightness value
experimental.conditions: Glossy paper manufactured by SEIKO-EPSON CORPORATION; ink with 6.0 parts compound

compound | Lightness L*
O=C(c1cccc(S(=O)(=O)O)c1)c1c2c3c(c(Nc4cc(Nc5nc(O)nc(Nc6ccccc6S(=O)(=O)O)n5)c(S(=O)(=O)O)cc4S(=O)(=O)O)cc(Oc4ccc(-c5ccc(S(=O)(=O)O)cc5)cc4S(=O)(=O)O)c3[nH]c1=O)C(=O)c1ccccc1-2 [Example 5 (No. 1)] | 56.1
O=C(O)c1ccccc1Nc1nc(O)nc(Nc2cc(Nc3cc(Oc4ccc(-c5ccc(S(=O)(=O)O)cc5)cc4S(=O)(=O)O)c4[nH]c(=O)c(C(=O)c5cccc(S(=O)(=O)O)c5)c5c4c3C(=O)c3ccccc3-5)c(S(=O)(=O)O)cc2S(=O)(=O)O)n1 [Example 6 (No. 8)] | 56.1
Cn1c(=O)cc2c3c(c(Nc4cc(Nc5nc(O)nc(Nc6cc(S(=O)(=O)O)ccc6S(=O)(=O)O)n5)ccc4S(=O)(=O)O)ccc31)C(=O)c1ccccc1-2 [Comparative Example 1, reference compound] | 49.5
O=C(O)c1cc(Nc2nc(O)nc(Nc3cc(Nc4cc(Oc5ccc(-c6ccc(S(=O)(=O)O)cc6)cc5S(=O)(=O)O)c5[nH]c(=O)c(C(=O)c6cccc(S(=O)(=O)O)c6)c6c5c4C(=O)c4ccccc4-6)c(S(=O)(=O)O)cc3S(=O)(=O)O)n2)cc(C(=O)O)c1 [Example 7 (No. 11)] | 57.2

---

assay.remarks: Evaluation of hue on glossy paper (L*, a*, b*, C* of inkjet recorded image)
Assay type: physicochemical
Set-up: key: CIELAB a* chromaticity value
experimental.conditions: Glossy paper manufactured by Canon Inc.; ink with 6.0 parts compound
Here, each record is paired with measured Chromaticity a* data.

compound | Chromaticity a*
O=C(c1cccc(S(=O)(=O)O)c1)c1c2c3c(c(Nc4cc(Nc5nc(O)nc(Nc6ccccc6S(=O)(=O)O)n5)c(S(=O)(=O)O)cc4S(=O)(=O)O)cc(Oc4ccc(-c5ccc(S(=O)(=O)O)cc5)cc4S(=O)(=O)O)c3[nH]c1=O)C(=O)c1ccccc1-2 [Example 5 (No. 1)] | 88.2
O=C(O)c1cc(Nc2nc(O)nc(Nc3cc(Nc4cc(Oc5ccc(-c6ccc(S(=O)(=O)O)cc6)cc5S(=O)(=O)O)c5[nH]c(=O)c(C(=O)c6cccc(S(=O)(=O)O)c6)c6c5c4C(=O)c4ccccc4-6)c(S(=O)(=O)O)cc3S(=O)(=O)O)n2)cc(C(=O)O)c1 [Example 7 (No. 11)] | 78.7
Cn1c(=O)cc2c3c(c(Nc4cc(Nc5nc(O)nc(Nc6cc(S(=O)(=O)O)ccc6S(=O)(=O)O)n5)ccc4S(=O)(=O)O)ccc31)C(=O)c1ccccc1-2 [Comparative Example 1, reference compound] | 81.0
O=C(O)c1ccccc1Nc1nc(O)nc(Nc2cc(Nc3cc(Oc4ccc(-c5ccc(S(=O)(=O)O)cc5)cc4S(=O)(=O)O)c4[nH]c(=O)c(C(=O)c5cccc(S(=O)(=O)O)c5)c5c4c3C(=O)c3ccccc3-5)c(S(=O)(=O)O)cc2S(=O)(=O)O)n1 [Example 6 (No. 8)] | 82.1
